Reference for the values: patent US20250326779A1

Test: Intestinal S9 Assay (dog)
Type: in vitro ADME
Details: pooled intestinal S9 fraction, 1.0 mg/mL S9 protein, 2 μM substrate, TRIS pH 7.4, read-out: Dog GI S9 T½
Description: Reagents. Stock solutions of test compounds in dimethyl sulfoxide (DMSO) having a final concentration of 10 mM were prepared and used in all experiments. Sekisui XenoTech (Kansas City, KS) provided pooled intestinal S9 fractions. All other chemicals were purchased from Sigma-Aldrich (St. Louis, MO) or VWR (West Chester, PA). […]
quantity: half-life at 2 μM (h)
The figure you give is taken to be in h; do not add the unit.

Hello, please tell me recorded half-life at 2 μM for this one: COC(=O)N[C@H](C(=O)N[C@@H](Cc1ccc(C#Cc2cnc(N3CC4CCC(C3)N4C3COC3)nc2)cc1)[C@H](CN(Cc1c(F)cc(-c2ccn(C(F)F)n2)cc1F)NC(=O)[C@@H](NC(=O)OC)C(C)(C)C(F)(F)F)OCOP(=O)(O)O)C(C)(C)C(F)(F)F [Compound 1] 1.36
